# experimental system: bovine pancreatic trypsin (Bos taurus)
# Sequence (P00760 24-246): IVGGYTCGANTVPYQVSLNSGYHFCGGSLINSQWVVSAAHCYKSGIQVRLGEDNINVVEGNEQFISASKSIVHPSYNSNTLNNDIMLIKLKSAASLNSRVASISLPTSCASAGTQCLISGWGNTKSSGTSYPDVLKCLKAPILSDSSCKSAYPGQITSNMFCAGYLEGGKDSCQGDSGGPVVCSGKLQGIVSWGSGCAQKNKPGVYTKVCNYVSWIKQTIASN
pIC50: −log10 of the molar value.
readout: pIC50

test_smiles=N/C(=N\O)c1ccc(CNC(=O)CN2CCCC[C@H](NS(=O)(=O)c3ccc4c(c3)CCO4)C2=O)cc1 experimental_system="bovine pancreatic trypsin (Bos taurus)" result="5.60 to 6.52"
test_smiles=COc1ccc(S(=O)(=O)N[C@H]2CCCCN(CC(=O)NCc3ccc(C(=N)N)cc3)C2=O)cc1OC experimental_system="bovine pancreatic trypsin (Bos taurus)" result="6.52 to 7.00"
test_smiles=N=C(N)c1ccc(CNC(=O)CN2CCCC[C@H](NS(=O)(=O)c3ccc4c(c3)CCO4)C2=O)s1 experimental_system="bovine pancreatic trypsin (Bos taurus)" result="6.52 to 7.00"
test_smiles=O=C(CN1CCCC[C@H](NS(=O)(=O)c2ccc3c(c2)CCO3)C1=O)NCc1ccc2[nH]ncc2c1 experimental_system="bovine pancreatic trypsin (Bos taurus)" result="≤ 5.60"
test_smiles=Cc1nc(N)ccc1CNC(=O)CN1CCCC[C@H](NS(=O)(=O)c2ccc3c(c2)CCO3)C1=O experimental_system="bovine pancreatic trypsin (Bos taurus)" result="≤ 5.60"
test_smiles=COc1ccc(S(=O)(=O)N[C@H]2CCCCN(CC(=O)NCC3CCN(C(=N)N)CC3)C2=O)cc1OC experimental_system="bovine pancreatic trypsin (Bos taurus)" result="≤ 5.60"
test_smiles=N=C(N)c1ccc(CNC(=O)CN2CCCC[C@H](NS(=O)(=O)c3ccc4ccccc4c3)C2=O)cc1 experimental_system="bovine pancreatic trypsin (Bos taurus)" result="6.52 to 7.00"
test_smiles=N=C(N)N1CCC(CNC(=O)CN2CCCC[C@H](NS(=O)(=O)c3ccc4c(c3)CCO4)C2=O)CC1 experimental_system="bovine pancreatic trypsin (Bos taurus)" result="≤ 5.60"
test_smiles=N=C(N)c1ccc(CNC(=O)CN2CCCC[C@H](NS(=O)(=O)Cc3ccccc3)C2=O)cc1 experimental_system="bovine pancreatic trypsin (Bos taurus)" result="5.60 to 6.52"
test_smiles=N=C(N)N1CCC(CNC(=O)CN2CCCC[C@H](NS(=O)(=O)c3ccccc3)C2=O)CC1 experimental_system="bovine pancreatic trypsin (Bos taurus)" result="≤ 5.60"
test_smiles=N[C@H]1CC[C@H](CNC(=O)CN2CCCC[C@H](NS(=O)(=O)Cc3ccccc3)C2=O)CC1 experimental_system="bovine pancreatic trypsin (Bos taurus)" result="≤ 5.60"
test_smiles=N=C(N)c1ccc(CNC(=O)CN2CCCC[C@H](NS(=O)(=O)c3ccc4c(c3)CCO4)C2=O)c(F)c1 experimental_system="bovine pancreatic trypsin (Bos taurus)" result="6.52 to 7.00"
test_smiles=N/C(=N\O)c1ccc(CNC(=O)[C@@H]2Cc3cccc4c3N2C(=O)[C@@H](NS(=O)(=O)c2ccc3c(c2)CCO3)CC4)cc1 experimental_system="bovine pancreatic trypsin (Bos taurus)" result="≤ 5.60"

Entry source: patent US6541467B1
